- target.entity: Cys12 of the KRAS 4B G12C protein (Homo sapiens, UniProt P01116, G12C)
- Construct: This protein contained 188 amino acids in total, including an N-terminal 6-Histidine tag; made in house; host or cells: E. coli BL21
- method.description: In vitro covalent adduct formation (CAF) assay, LC-MS intact mass
- Format: binding
- condition.notes: 10 μM compound, after 1 hour
- Experimental: This Example provides a protocol for assessing covalent adduct formation (CAF) between the compounds of the present application and KRAS. In vitro covalent adduct formation assay: Covalent adduct formation (CAF) reactions between Cys12 of the KRAS 4B G12C protein and some of the compounds of Tables 1 to 4 were measured in vitro using liquid chromatography-mass spectrometry (LC-MS). Recombinant Human KRAS 4B protein containing the G12C mutation was used in compound screening experiments. […]
Catalogue of CAF (% after 1 hour) readings, one per entry.
recorded.metric: CAF (% after 1 hour) (%)

mol: O=C1CC2CN(c3nc(=O)n4c5c(c(-c6ccc(F)cc6F)c(C(F)(F)F)cc35)SCCC4)CC(C1)N2C(=O)/C=C/CF
target.entity: Cys12 of the KRAS 4B G12C protein (Homo sapiens, UniProt P01116, G12C)
recorded.metric: CAF (% after 1 hour)
value: 73
--
mol: C=CC(=O)N1[C@H](C)CN(c2nc(=O)n3c4c(c(-c5ccc(F)cc5F)c(C(F)(F)F)cc24)SC[C@@H](OCC)C3)C[C@@H]1C
target.entity: Cys12 of the KRAS 4B G12C protein (Homo sapiens, UniProt P01116, G12C)
recorded.metric: CAF (% after 1 hour)
value: 95
--
mol: C=C(F)C(=O)N1[C@H](C)CN(c2nc(=O)n3c4c(c(-c5cc(Cl)c(F)cc5F)c(C(F)(F)F)cc24)SC[C@@H](OC)C3)C[C@@H]1C
target.entity: Cys12 of the KRAS 4B G12C protein (Homo sapiens, UniProt P01116, G12C)
recorded.metric: CAF (% after 1 hour)
value: 66
--
mol: [2H]C([2H])=C([2H])C(=O)N1[C@H](C)CN(c2nc(=O)n3c4c(c(-c5ccc(F)cc5)c(C(F)(F)F)cc24)SC[C@@H](OC)C3)C[C@@H]1C
target.entity: Cys12 of the KRAS 4B G12C protein (Homo sapiens, UniProt P01116, G12C)
recorded.metric: CAF (% after 1 hour)
value: 96
--
mol: C=CC(=O)N1[C@H](C)CN(c2nc(=O)n3c4c(c(-c5ccc(F)cc5F)c(C(F)(F)F)cc24)SCCC3)C[C@@H]1C
target.entity: Cys12 of the KRAS 4B G12C protein (Homo sapiens, UniProt P01116, G12C)
recorded.metric: CAF (% after 1 hour)
value: 93
--
mol: C=CC(=O)N1[C@H](C)CN(c2nc(=O)n3c4c(c(-c5ncc(F)cc5F)c(C(F)(F)F)cc24)SC[C@@H](OC)C3)C[C@@H]1C
target.entity: Cys12 of the KRAS 4B G12C protein (Homo sapiens, UniProt P01116, G12C)
recorded.metric: CAF (% after 1 hour)
value: 95

---

- target.entity: Cys12 of the KRAS 4B G12C protein (Homo sapiens, UniProt P01116, G12C)
- Construct: This protein contained 188 amino acids in total, including an N-terminal 6-Histidine tag; made in house; host or cells: E. coli BL21
- method.description: In vitro covalent adduct formation (CAF) assay, LC-MS intact mass
- Assay type: binding
- condition.notes: 10 uM compound, 60 min
Catalogue of % CAF 10 uM @ 60 min readings, one per entry.

compound: C=CC(=O)N1CCN(c2nc(=O)n3c4c(c(-c5cc(Cl)c(F)cc5F)c(C(F)(F)F)cc24)SC[C@@H]3CN2CCN(C3CC3)CC2)CC1 (atropisomer, axis not shown) [Example 1355]
target.entity: Cys12 of the KRAS 4B G12C protein (Homo sapiens, UniProt P01116, G12C)
% CAF 10 uM @ 60 min (%): 99.2

compound: C=CC(=O)N1CCN(c2nc(=O)n3c4c(c(-c5cc(Cl)c(F)cc5F)c(C(F)(F)F)cc24)SC[C@@H]3COCOC)CC1 (atropisomer, axis not shown) [Example 1364]
target.entity: Cys12 of the KRAS 4B G12C protein (Homo sapiens, UniProt P01116, G12C)
% CAF 10 uM @ 60 min (%): 98

compound: C=CC(=O)N1[C@H](C)CN(c2nc(=O)n3c4c(c(-c5cc(Cl)c(F)cc5F)c(C(F)(F)F)cc24)SC[C@@H]3CN2CCN(CC)CC2)C[C@@H]1C (atropisomer, axis not shown) [Example 1339]
target.entity: Cys12 of the KRAS 4B G12C protein (Homo sapiens, UniProt P01116, G12C)
% CAF 10 uM @ 60 min (%): 68.7

compound: C=CC(=O)N1[C@H](C)CN(c2nc(=O)n3c4c(c(-c5ccc(F)cc5F)c(C(F)(F)F)cc24)SC[C@@H]3CN2CCN(CC)CC2)C[C@@H]1C (atropisomer, axis not shown) [Example 1329]
target.entity: Cys12 of the KRAS 4B G12C protein (Homo sapiens, UniProt P01116, G12C)
% CAF 10 uM @ 60 min (%): 95.4

compound: C=CC(=O)N1[C@H](C)CN(c2nc(=O)n3c4c(c(-c5ccc(F)c(Cl)c5)c(C(F)(F)F)cc24)SC[C@@H]3COCOC)C[C@@H]1C
target.entity: Cys12 of the KRAS 4B G12C protein (Homo sapiens, UniProt P01116, G12C)
% CAF 10 uM @ 60 min (%): 74.6

compound: C=CC(=O)N1C[C@H](C)N(c2nc(=O)n3c4c(c(-c5ccc(F)cc5)c(C(F)(F)F)cc24)SC[C@@H]3CN2C[C@@H]3C[C@H]2CO3)C[C@H]1C
target.entity: Cys12 of the KRAS 4B G12C protein (Homo sapiens, UniProt P01116, G12C)
% CAF 10 uM @ 60 min (%): 64.8

compound: C=CC(=O)N1C[C@H](C)N(c2nc(=O)n3c4c(c(-c5ccc(F)cc5F)c(C(F)(F)F)cc24)SC[C@@H]3COCOC)C[C@H]1C (atropisomer, axis not shown) [Example 1326]
target.entity: Cys12 of the KRAS 4B G12C protein (Homo sapiens, UniProt P01116, G12C)
% CAF 10 uM @ 60 min (%): 82.3

compound: C=CC(=O)N1[C@H](C)CN(c2nc(=O)n3c4c(c(-c5cc(Cl)c(F)cc5F)c(C(F)(F)F)cc24)SC[C@@H]3CN2CCN(CC)CC2)C[C@@H]1C (atropisomer, axis not shown) [Example 1340]
target.entity: Cys12 of the KRAS 4B G12C protein (Homo sapiens, UniProt P01116, G12C)
% CAF 10 uM @ 60 min (%): 89.4

compound: C=CC(=O)N1[C@H](C)CN(c2nc(=O)n3c4c(c(-c5ccc(F)cc5)c(C(F)(F)F)cc24)SC[C@@H]3COCC)C[C@@H]1C
target.entity: Cys12 of the KRAS 4B G12C protein (Homo sapiens, UniProt P01116, G12C)
% CAF 10 uM @ 60 min (%): 90.1

compound: C=CC(=O)N1[C@H](C)CN(c2nc(=O)n3c4c(c(-c5cc(Cl)c(F)cc5F)c(C(F)(F)F)cc24)SC[C@@H](N2CCCC2)C3)C[C@@H]1C [Example 1422]
target.entity: Cys12 of the KRAS 4B G12C protein (Homo sapiens, UniProt P01116, G12C)
% CAF 10 uM @ 60 min (%): 94.1

---

Catalogue of % CAF @ 10 uM, 1h readings, one per entry.
- target.entity: K-Ras G12C (Homo sapiens, UniProt P01116, G12C)
- Construct: This protein contained 188 amino acids in total, including an N-terminal 6-Histidine tag; made in house; host or cells: E. coli BL21
- method.description: CAF assay (% CAF; method in Example 7, not in this part)
- Assay type: binding
- condition.notes: 10 uM compound, 1 h incubation
recorded.metric: % CAF @ 10 uM, 1h (%)

mol: C=CC(=O)N1C[C@H](C)N(c2nc(=O)n3c4c(c(-c5cc(Cl)c(F)cc5F)c(Cl)cc24)SC[C@@H]3COC)C[C@H]1C
value: 65.3

mol: C=CC(=O)N1[C@H](C)CN(c2nc(=O)n3c4c(c(-c5cc(Cl)c(F)cc5F)c(Cl)cc24)SC[C@@H](OC)C3)C[C@@H]1C
value: 92

mol: C=CC(=O)N1[C@H](C)CN(c2nc(=O)n3c4c(c(-c5ccc(F)cc5)c(C(F)(F)F)cc24)SC[C@@H](OC)C3)C[C@@H]1C
value: 97

mol: C=CC(=O)N1C[C@H](C)N(c2nc(=O)n3c4c(c(-c5cc(Cl)c(F)cc5F)c(Cl)cc24)SC[C@@H]3CC2CCN(CC(F)F)CC2)C[C@H]1C
value: 79.5

mol: C=CC(=O)N1C[C@H](C)N(c2nc(=O)n3c4c(c(-c5ccc(F)cc5)c(Cl)cc24)SC[C@@H]3CN2CCC3(CC2)COC3)C[C@H]1C
value: 65.8

mol: C=CC(=O)N1C[C@H](C)N(c2nc(=O)n3c4c(c(-c5ccc(F)cc5F)c(Cl)cc24)SC[C@@H]3CN2CCN(C3CC3)CC2)C[C@H]1C
value: 53.4
